Biological target: Human recombinant MMP-13 (Homo sapiens)
Construct: made in house; host or cells: baculovirus / insect cells
Test: In vitro MMP inhibition, IC50 determination (fluorogenic substrate I)
Assay type: biochemical
Conditions: value outside parentheses (Ki in parenthesis)
Recorded measurements of log10 IC50, one per entry
Plainly stated, the numbers are log10 of IC50 given in nM.

Here's what some known entries look like.
CCCCOc1ccc(OCCCOc2ccc(S(=O)(=O)C3(C(=O)NO)CCOCC3)cc2)cc1	0.82
C/C(=C\c1ccccc1)COc1ccc(S(=O)(=O)C2(C(=O)NO)CCOCC2)cc1	0.48
COc1ccc(OCCCOc2ccc(S(=O)(=O)C3(C(=O)NO)CCN(C4CC4)CC3)cc2)cc1	0.26
C=CCCCOc1ccc(S(=O)(=O)C2(C(=O)NO)CCOCC2)cc1	0.30
CN(CCc1ccccc1)S(=O)(=O)CCCOc1ccc(S(=O)(=O)C2(C(=O)NO)CCOCC2)cc1	0.38

Item Cc1ccc2c(c1)CCCN2CCCCCOc1ccc(S(=O)(=O)C2(C(=O)NO)CCOCC2)cc1 with Human recombinant MMP-13 (Homo sapiens) - log10 IC50?
1.18

Item COc1ccc(C(=O)NCCCNc2ccc(S(=O)(=O)C3(C(=O)NO)CCOCC3)cc2)cc1 with Human recombinant MMP-13 (Homo sapiens) - log10 IC50?
1.16

Item O=C(CCCCOc1ccc(S(=O)(=O)C2(C(=O)NO)CCOCC2)cc1)c1cccc(-c2ccccc2)c1 with Human recombinant MMP-13 (Homo sapiens) - log10 IC50?
-0.30
